B1: LINE1-full (parent)
chain: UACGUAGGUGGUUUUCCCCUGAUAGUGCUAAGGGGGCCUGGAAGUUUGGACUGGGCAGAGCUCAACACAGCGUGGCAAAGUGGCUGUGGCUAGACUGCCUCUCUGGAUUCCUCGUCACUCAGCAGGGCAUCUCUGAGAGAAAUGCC

# Variants of: B1
# test details: self-cleavage, relative activity (ratio to wild type); higher = more cleavage; in vitro, sequencing; the parent is a self-cleaving ribozyme
Use self-cleavage to assign classes; range list: class 0 = under 0.1, class 1 = from 0.1 up to 1, class 2 = 1 and over

| sequence variant | answer label |
| --- | --- |
| U87A U91C | class 0 |
| A67G C95A | class 0 |
| C111U A121C | class 2 |
| U108A U132C | class 2 |
| A69U U91C | class 0 |
| A59G C133U | class 0 |
| U9A A22G | class 2 |
| G8A C61U | class 0 |
| G7U U39A | class 2 |
| U12G U102C | class 1 |
| U20C U102A | class 2 |
| U102C A117G | class 2 |
| U12C U52C | class 2 |
| C90U U100A | class 0 |
| U1C U20A | class 1 |
| U46A U96A | class 0 |
| U45C U134A | class 2 |
| U96C U143A | class 1 |
| C51U U96C | class 1 |
| U9A A43U | class 1 |
| U20A G137A | class 2 |
